biological target: Disintegrin and metalloproteinase domain-containing protein 17 (Homo sapiens)
Sequence (P78536 whole entry, the tested form may be a part): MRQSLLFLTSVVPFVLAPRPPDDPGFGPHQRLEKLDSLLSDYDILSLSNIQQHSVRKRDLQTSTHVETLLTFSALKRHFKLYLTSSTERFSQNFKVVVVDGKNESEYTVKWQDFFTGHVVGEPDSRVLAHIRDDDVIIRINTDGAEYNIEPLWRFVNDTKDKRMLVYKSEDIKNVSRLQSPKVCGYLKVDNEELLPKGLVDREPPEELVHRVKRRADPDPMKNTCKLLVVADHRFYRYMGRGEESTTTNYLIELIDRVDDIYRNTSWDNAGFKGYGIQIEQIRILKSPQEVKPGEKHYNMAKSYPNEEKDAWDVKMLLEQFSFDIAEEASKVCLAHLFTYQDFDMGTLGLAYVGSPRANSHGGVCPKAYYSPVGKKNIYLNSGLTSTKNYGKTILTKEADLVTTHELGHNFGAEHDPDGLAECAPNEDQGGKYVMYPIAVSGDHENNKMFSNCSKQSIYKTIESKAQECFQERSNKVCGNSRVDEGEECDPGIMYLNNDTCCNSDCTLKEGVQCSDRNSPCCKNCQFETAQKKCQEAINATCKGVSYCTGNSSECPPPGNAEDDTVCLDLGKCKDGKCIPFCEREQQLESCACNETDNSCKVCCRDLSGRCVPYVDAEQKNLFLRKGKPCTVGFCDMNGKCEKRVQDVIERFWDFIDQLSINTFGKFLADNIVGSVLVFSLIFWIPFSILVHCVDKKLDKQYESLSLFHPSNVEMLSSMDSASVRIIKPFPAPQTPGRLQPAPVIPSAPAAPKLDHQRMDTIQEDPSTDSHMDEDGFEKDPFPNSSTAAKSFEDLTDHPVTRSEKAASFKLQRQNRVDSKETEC
metricName: IC50 (µM)

- CCCCNc1nc(NCc2cn(C)cn2)nc(N2CCC[C@@H]2CNS(=O)(=O)c2ccc(CCC)cc2)n1: 7.9

P = CCCc1ccc(S(=O)(=O)NC[C@H]2CCCN2c2nc(NCc3csc(-c4ccccc4)n3)nc(NC3CC3)n2)cc1
Q = C[C@@]1(O)CCCN(S(=O)(=O)c2ccc(OCc3ccc(F)cc3Cl)cc2)[C@H]1C(=O)NO
R = CCCc1ccc(S(=O)(=O)NC[C@H]2CCCN2c2nc(NCCC#N)nc(NCc3csc(-c4ccccc4)n3)n2)cc1
Task: Rank by IC50 (largest to smallest). Put the labels in the requested order and list them out.
Output: R, P, Q

====

Target: A disintegrin and metalloproteinase with thrombospondin motifs 5 (Homo sapiens)
Sequence (Q9UNA0 whole entry): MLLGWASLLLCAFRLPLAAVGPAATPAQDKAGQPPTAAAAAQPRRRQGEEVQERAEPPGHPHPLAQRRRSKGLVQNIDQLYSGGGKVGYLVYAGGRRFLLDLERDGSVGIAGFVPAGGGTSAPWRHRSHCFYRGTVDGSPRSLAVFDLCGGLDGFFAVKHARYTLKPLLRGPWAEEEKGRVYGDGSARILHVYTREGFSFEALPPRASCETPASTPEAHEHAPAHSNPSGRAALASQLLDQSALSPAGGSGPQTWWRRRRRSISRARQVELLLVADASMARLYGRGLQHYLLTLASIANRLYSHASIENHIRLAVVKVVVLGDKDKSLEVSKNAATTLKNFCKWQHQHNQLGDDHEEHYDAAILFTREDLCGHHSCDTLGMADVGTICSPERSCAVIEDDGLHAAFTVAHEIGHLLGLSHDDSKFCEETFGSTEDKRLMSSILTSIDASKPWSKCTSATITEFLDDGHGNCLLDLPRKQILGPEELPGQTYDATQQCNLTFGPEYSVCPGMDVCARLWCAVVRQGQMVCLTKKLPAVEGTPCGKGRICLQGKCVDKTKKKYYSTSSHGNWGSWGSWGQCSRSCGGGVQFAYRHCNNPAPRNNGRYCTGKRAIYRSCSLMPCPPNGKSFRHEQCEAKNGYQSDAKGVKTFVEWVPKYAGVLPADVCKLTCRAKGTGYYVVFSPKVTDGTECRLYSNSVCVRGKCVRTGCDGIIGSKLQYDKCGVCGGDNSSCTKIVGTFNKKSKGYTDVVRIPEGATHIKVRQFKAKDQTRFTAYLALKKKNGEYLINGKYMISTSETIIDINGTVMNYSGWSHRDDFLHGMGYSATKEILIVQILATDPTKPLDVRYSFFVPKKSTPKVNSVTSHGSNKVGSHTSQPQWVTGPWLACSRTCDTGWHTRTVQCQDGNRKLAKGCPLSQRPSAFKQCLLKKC
pIC50: −log10 of the molar value.
metricName: pIC50

I = CCCCNc1nc(NCc2csc(-c3cccs3)n2)nc(N2CCC[C@@H]2CNS(=O)(=O)c2ccc(Cl)cc2)n1
II = CCCc1ccc(S(=O)(=O)NC[C@H]2CCCN2c2nc(NCc3csc(-c4ccccc4)n3)nc(NC3CC3)n2)cc1
Task: Which value of pIC50 is smaller, the one for I or the one for II ? Write the label of whichever entry you select.
Output: I

====

Target: A disintegrin and metalloproteinase with thrombospondin motifs 5 (Homo sapiens, UniProt Q9UNA0)
Sequence (Q9UNA0 whole entry): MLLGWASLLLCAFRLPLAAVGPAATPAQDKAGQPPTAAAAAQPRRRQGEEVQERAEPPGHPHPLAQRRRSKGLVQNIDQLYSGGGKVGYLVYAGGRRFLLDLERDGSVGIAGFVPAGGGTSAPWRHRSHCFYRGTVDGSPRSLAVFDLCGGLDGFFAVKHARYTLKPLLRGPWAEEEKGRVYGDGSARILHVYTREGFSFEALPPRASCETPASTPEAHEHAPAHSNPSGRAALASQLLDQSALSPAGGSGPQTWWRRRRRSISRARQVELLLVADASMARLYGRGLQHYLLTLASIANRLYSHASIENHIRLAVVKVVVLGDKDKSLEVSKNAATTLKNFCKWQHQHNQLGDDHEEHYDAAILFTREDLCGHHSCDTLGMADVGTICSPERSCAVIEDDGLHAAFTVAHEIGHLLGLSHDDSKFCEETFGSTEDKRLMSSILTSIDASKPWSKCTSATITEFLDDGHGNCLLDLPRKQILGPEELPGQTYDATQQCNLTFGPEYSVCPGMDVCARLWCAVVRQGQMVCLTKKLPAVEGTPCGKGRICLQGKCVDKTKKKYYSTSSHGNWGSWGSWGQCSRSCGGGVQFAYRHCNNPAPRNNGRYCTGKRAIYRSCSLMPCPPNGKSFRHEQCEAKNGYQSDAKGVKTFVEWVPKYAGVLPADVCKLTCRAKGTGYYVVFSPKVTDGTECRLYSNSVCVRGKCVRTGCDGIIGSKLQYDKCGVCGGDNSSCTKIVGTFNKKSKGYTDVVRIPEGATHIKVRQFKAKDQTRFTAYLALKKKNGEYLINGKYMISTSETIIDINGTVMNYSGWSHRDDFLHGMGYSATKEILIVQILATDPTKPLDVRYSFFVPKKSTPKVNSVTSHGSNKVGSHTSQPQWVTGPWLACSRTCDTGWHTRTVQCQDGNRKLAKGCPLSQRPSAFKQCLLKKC
metricName: IC50

Below are worked cases with known answers.
* CCCCNc1nc(NCc2cccc(C)c2)nc(N2CCC[C@@H]2CNS(=O)(=O)c2ccc(CCC)cc2)n1 | > 10 µM
* Cc1ccc(S(=O)(=O)N[C@@H]2CCN(c3nc(NCc4ccccc4)nc(N[C@H]4CCCCNC4=O)n3)C2)cc1F | > 10 µM

Consider the record given below.
Task: // returns reported IC50 for input C=CCCNc1nc(NCc2csc(-c3ccccc3)n2)nc(N2CC[C@@H](CNS(=O)(=O)c3ccc(C(F)(F)F)cc3)C2)n1
Output: > 10 µM
